Numbers sourced from PubChem BioAssay AID1662.

# protocol_notes: kanamycin survival loss of SKKanGAS strain – BacTiter-Glo luminescence, streptokinase expression inhibitor project, primary screen (AID 1662);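 note: strain carries kanamycin resistance gene driven by streptokinase promoter and grows in 40 µg/ml kanamycin; loss of luminescence reflects streptokinase promoter inhibition or plain growth inhibition; 0% = median of DMSO wells and 100% = positive control at its reference dose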
# condition_set: S. pyogenes SKKanGAS, kanamycin growth, 6 h, at 7.5 µM
Screen size: about 300,000 compounds; about 4,000 (1.3%) were called active.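 Rule for the calls: active = mean replicate score, as percent of positive control median, at least 50; inconclusive = mean below 50 but one replicate at or above 50; inactive = mean and every replicate below 50.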 The list comes from a sample in which actives are over-represented; it also holds close analogues and randomly drawn compounds.
Possible outcomes: label 1 (active), label 0 (inactive)

{"compound": "C=CCSc1nc2c(c(=O)[nH]c(=O)n2C)n1Cc1ccccc1", "qualitative_label": "label 0"}
{"compound": "COc1ccc(/C=C/C(=O)c2ccc(NS(=O)(=O)c3ccc(C)cc3)cc2)cc1O", "qualitative_label": "label 0"}
{"compound": "CCCCCCn1c(SCC(=O)c2ccccc2)nc2c1c(=O)[nH]c(=O)n2C", "qualitative_label": "label 1"}
{"compound": "FC(F)(F)c1cccc(-c2cc3ccccc3nc2N2CCCC2)c1", "qualitative_label": "label 1"}
{"compound": "COC(=O)c1ccc(C(=O)OC)c(NC(=S)N2CCN(c3cc(Cl)ccc3C)CC2)c1", "qualitative_label": "label 0"}
{"compound": "COc1ccc(C(=O)/C=C/c2ccc(-c3ccccc3)cc2)cc1CSCC(=O)O", "qualitative_label": "label 1"}
{"compound": "COc1ccc(N2CCC(CNC(=S)Nc3c(C)cccc3C)C2)cc1 (stereo not given)", "qualitative_label": "label 0"}
{"compound": "Cc1cc(C)c(NC(=O)c2oc3ccccc3c2COc2ccccc2)c(C)c1", "qualitative_label": "label 1"}
{"compound": "COc1c(N2CCN(C(=S)Nc3ccccc3F)C(C)C2)c(F)cc2c(=O)c(C(=O)O)cn(C3CC3)c12 (stereo not given)", "qualitative_label": "label 1"}
{"compound": "COC(=O)c1ccc(COc2ccc(/C=C/C(=O)c3ccc(OC)c(CSCC(=O)O)c3)cc2OC)cc1", "qualitative_label": "label 0"}
